Cited source for all entries: patent US7135466B2

# system: PDGF-Ra (Homo sapiens)
# Construct: host or cells: G-292 human osteosarcoma cells
# experiment.summary: Inhibitory activity against PDGF-Ra phosphorylation by PDGF-AA stimulation using G292
# Assay type: cell-based
# run.conditions: > means inhibition at indicated concentration not more than 50%, < and << not less than 50%; read-out: PDGF (E) IC50
recorded.endpoint: IC50

1. COc1cc2ncnc(Oc3ccc(NC(=S)NCCCN4CCCC4)cc3)c2cc1OC; > 100 nM
2. COc1cc2nccc(Oc3ccc(NC(=S)NC(=O)c4ccc(C)s4)cc3F)c2cc1OC; < 10 nM
3. COc1cc2nccc(Oc3ccc(NC(=O)NCCN4CCCCC4)cc3)c2cc1OC; 15 nM
4. COc1cc2ncnc(Oc3ccc(NC(=S)NC(=O)Cc4ccccc4Cl)cc3)c2cc1OC; < 10 nM
5. COc1cc2nccc(Oc3ccc(NC(=S)NC(=O)N4CCCC4)cc3)c2cc1OC; < 10 nM

Short answer for CCCC(CCN1CCN(C)CC1)OC(=O)Nc1ccc(Oc2ncnc3cc(OC)c(OC)cc23)cc1 (stereo not drawn) : IC50 was > 100 nM

Short answer for "COc1cc2ncnc(Oc3ccc(N(C)C(=O)OCc4ccccc4Cl)cc3)c2cc1OC" : IC50 was 20 nM

Short answer for "COc1cc2ncnc(Oc3ccc(NC(=O)NCCN4CCOCC4)cc3)c2cc1OC" : IC50 was < 10 nM

Short answer for "COc1cc2nccc(Oc3ccc(NC(=S)NC(=O)c4ccc(Cl)s4)c(C)c3)c2cc1OC" : IC50 was > 100 nM

Short answer for "COc1cc2nccc(Oc3ccc(NC(=S)NC(=O)c4ccccc4F)cc3F)c2cc1OC" : IC50 was < 10 nM

Short answer for "COc1cc2nccc(Oc3ccc(NC(=S)NC(=O)c4cc(C)oc4C)c(C)c3)c2cc1OC" : IC50 was > 100 nM

Short answer for "CCN(CC)CCOC(=O)Nc1ccc(Oc2ncnc3cc(OC)c(OC)cc23)cc1" : IC50 was > 100 nM

* * *

# system: PDGF-Ra (Homo sapiens)
# Construct: host or cells: G-292 human osteosarcoma cells
# experiment.summary: Inhibitory activity against PDGF-Ra phosphorylation by PDGF-AA stimulation using G292
# Format: cell-based
# run.conditions: Pharmacological Test Example 1; > means inhibition at indicated concentration not more than 50%, < and << not less than 50%; read-out: PDGF (E) IC50
# Method: Measurement of Inhibitory Activity Against PDGF-Ra Phosphorylation by PDGF-AA Stimulation Using G292 […] This solubilized cell solution was transferred to a 96-well plate coated with aniti-phosphotyrosine antibody PY-20, and a reaction was allowed to proceed at 4° C. overnight. […] Color development was carried out using a color development kit for peroxidase (Sumitomo Bakelite Co., Ltd.), and the absorbance was measured at 450 nm.
pIC50: −log10 of the molar value.
recorded.endpoint: pIC50

1) COc1cc2nccc(Oc3cc(C)c(NC(=O)OCCCSc4ccccn4)cc3C)c2cc1OC; > 8.00
2) CCCCCCOC(=O)Nc1ccc(Oc2ncnc3cc(OC)c(OC)cc23)cc1; > 8.00
3) COc1cc2nccc(Oc3ccc(NC(=O)OCCCOc4cccc(F)c4)c(C)c3C)c2cc1OC; > 8.00
4) COc1cc2nccc(Oc3ccc(NC(=O)Oc4c(C)cccc4C)cc3)c2cc1OC; 7.77
5) COc1cc2nccc(Oc3ccc(NC(=O)OCCN4CCCCC4)cc3)c2cc1OC; 7.96
6) CCC(CC)OC(=O)Nc1ccc(Oc2ccnc3cc(OC)c(OC)cc23)cc1; > 8.00

Short answer for "COc1ccc(OCCCOC(=O)Nc2ccc(Oc3ccnc4cc(OC)c(OC)cc34)cc2)cc1" : pIC50 was > 8.00

Short answer for "CCCCCCCCCCCCCCCCCCOC(=O)Nc1ccc(Oc2ccnc3cc(OC)c(OC)cc23)cc1" : pIC50 was < 7.00

Short answer for "CCCCC(CCCC)OC(=O)Nc1cc(C)c(Oc2ccnc3cc(OC)c(OC)cc23)cc1C" : pIC50 was < 7.00

* * *

# system: PDGF-Ra (Homo sapiens, UniProt P16234)
# Construct: host or cells: G-292 human osteosarcoma cells
# Sequence (P16234 24-1089): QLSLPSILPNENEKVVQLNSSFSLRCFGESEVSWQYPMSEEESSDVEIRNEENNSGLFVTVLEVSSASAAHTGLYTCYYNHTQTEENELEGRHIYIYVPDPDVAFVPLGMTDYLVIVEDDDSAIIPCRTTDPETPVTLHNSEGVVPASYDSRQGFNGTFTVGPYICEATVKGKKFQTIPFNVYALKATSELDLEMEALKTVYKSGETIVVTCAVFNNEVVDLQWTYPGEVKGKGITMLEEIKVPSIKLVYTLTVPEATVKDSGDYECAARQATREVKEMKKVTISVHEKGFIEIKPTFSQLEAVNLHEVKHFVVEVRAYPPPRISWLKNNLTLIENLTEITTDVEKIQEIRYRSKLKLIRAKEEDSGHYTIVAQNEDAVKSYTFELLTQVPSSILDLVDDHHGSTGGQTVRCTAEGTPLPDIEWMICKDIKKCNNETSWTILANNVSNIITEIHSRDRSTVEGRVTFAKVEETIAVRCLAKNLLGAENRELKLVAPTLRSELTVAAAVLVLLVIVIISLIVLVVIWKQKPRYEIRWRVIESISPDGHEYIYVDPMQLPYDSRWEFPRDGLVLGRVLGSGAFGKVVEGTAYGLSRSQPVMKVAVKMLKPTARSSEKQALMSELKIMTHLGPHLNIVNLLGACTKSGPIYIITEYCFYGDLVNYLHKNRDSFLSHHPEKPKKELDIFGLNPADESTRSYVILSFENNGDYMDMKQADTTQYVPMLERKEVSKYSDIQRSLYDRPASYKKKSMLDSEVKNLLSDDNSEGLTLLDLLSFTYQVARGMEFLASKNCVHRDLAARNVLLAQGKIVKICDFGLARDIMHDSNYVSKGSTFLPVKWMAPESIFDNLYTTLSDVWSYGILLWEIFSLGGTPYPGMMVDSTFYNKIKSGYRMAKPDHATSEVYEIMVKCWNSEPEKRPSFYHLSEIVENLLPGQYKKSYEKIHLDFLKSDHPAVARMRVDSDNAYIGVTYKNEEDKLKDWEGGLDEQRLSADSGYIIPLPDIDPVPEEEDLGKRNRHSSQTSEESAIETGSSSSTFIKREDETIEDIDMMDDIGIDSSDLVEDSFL
# experiment.summary: Inhibitory activity against PDGF-Ra phosphorylation by PDGF-AA stimulation using G292
# Format: cell-based
# run.conditions: > means inhibition at indicated concentration not more than 50%, < and << not less than 50%; read-out: PDGF (E) IC50
recorded.endpoint: IC50

Guide cases for IC50, answers given:
1. COc1cccc(OCCCOc2ccc(Oc3ncnc4cc(OC)c(OC)cc34)cc2)c1; < 10 nM
2. COc1cc2ncnc(Oc3ccc(OCCCOc4ccc(F)cc4)cc3)c2cc1OC; < 10 nM
3. COc1cc2nccc(Oc3ccc(NC(=S)NC(=O)c4ccccc4)c(Cl)c3)c2cc1OC; > 100 nM

As a next step, examine the molecule that follows.
Short answer for C#CCC(CC)OC(=O)Nc1ccc(Oc2ncnc3cc(OC)c(OC)cc23)cc1[N+](=O)[O-] (stereo not shown) : IC50 was > 100 nM

* * *

# system: c-kit (Homo sapiens, UniProt P10721)
# Construct: MO7e (human megakaryocytic leukemia cell line) which had been arrested for 20 hr; endogenous in cells; host or cells: MO7e human megakaryocytic leukemia cell line
# Sequence (P10721 26-976): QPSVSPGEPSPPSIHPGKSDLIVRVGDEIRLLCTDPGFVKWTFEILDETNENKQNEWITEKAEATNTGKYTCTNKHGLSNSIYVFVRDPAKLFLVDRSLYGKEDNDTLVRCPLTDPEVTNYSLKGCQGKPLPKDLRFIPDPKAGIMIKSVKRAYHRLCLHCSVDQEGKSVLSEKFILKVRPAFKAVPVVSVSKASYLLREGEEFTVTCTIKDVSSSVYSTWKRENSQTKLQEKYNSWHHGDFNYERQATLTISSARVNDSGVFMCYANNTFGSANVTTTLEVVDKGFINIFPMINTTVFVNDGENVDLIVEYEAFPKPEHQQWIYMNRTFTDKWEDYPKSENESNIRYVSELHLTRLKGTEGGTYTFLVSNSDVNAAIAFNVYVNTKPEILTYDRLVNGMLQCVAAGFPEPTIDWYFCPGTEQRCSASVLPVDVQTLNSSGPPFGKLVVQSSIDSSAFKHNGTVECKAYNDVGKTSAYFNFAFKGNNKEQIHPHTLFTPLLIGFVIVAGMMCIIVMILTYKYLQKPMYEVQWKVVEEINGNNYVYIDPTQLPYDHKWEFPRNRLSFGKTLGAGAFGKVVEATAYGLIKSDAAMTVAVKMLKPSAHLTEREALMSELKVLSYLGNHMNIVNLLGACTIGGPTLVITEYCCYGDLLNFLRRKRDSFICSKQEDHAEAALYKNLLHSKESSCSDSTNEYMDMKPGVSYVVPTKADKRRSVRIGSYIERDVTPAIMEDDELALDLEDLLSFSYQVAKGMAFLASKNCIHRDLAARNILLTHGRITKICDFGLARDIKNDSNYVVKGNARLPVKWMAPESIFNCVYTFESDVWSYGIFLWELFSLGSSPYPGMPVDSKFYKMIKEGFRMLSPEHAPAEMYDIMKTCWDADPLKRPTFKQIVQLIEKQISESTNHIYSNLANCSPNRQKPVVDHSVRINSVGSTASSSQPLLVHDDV
# experiment.summary: Inhibitory activity against c-kit autophosphorylation (MO7e cells, h-SCF)
# Assay type: cell-based
# run.conditions: MO7e cells, h-SCF 50 ng/ml; read-out: c-kit IC50
Mark T only for IC50 values smaller than 200 nM; exact matches and larger values are F.

1. COc1cc2nccc(Oc3ccc(NC(=O)OCc4ccc(C)cc4)cc3)c2cc1OC; T

Lab note: IC50 threshold 200 nM. Does this compound come in strictly under it? COc1cc2ncnc(Oc3ccc(NC(=O)OC(C)c4ccccc4F)cc3)c2cc1OC (centres unmarked)
F

Lab note: IC50 threshold 200 nM. Does this compound come in strictly under it? COc1ccc(C(C)OC(=O)Nc2ccc(Oc3ccnc4cc(OC)c(OC)cc34)c(C)c2C)cc1 (centres unmarked)
F

Lab note: IC50 threshold 200 nM. Does this compound come in strictly under it? "COc1cc2nccc(Oc3ccc(NC(=O)Oc4ccccc4OC)cc3)c2cc1OC"
T

Lab note: IC50 threshold 200 nM. Does this compound come in strictly under it? "COc1cc2ncnc(Oc3ccc(NC(=O)OC4CCCC4)cc3)c2cc1OC"
T

Lab note: IC50 threshold 200 nM. Does this compound come in strictly under it? "COc1cc2ncnc(Oc3ccc(NC(=O)OCCC4CCCCC4)cc3)c2cc1OC"
T

Lab note: IC50 threshold 200 nM. Does this compound come in strictly under it? "COc1cc2nccc(Oc3ccc(NC(=O)OCc4ccc(Cl)cc4)c(C)c3C)c2cc1OC"
T

Lab note: IC50 threshold 200 nM. Does this compound come in strictly under it? "COc1cc2nccc(Oc3ccc(NC(=O)OCCCOc4ccc(F)cc4)cc3)c2cc1OC"
T

* * *

# system: c-kit (Homo sapiens)
# Construct: MO7e (human megakaryocytic leukemia cell line) which had been arrested for 20 hr; endogenous in cells; host or cells: MO7e human megakaryocytic leukemia cell line
# experiment.summary: Inhibitory activity against c-kit autophosphorylation (MO7e cells, h-SCF)
# Assay type: cell-based
# run.conditions: MO7e cells, 50 ng/ml h-SCF; read-out: c-kit IC50
recorded.endpoint: pIC50
Reminder that pIC50 is minus the log10 of a molar concentration.

1. COc1ccccc1CC(=O)NC(=S)Nc1ccc(Oc2ccnc3cc(OC)c(OC)cc23)c(Cl)c1; 6.67
2. CCN(CC)CCCOC(=O)Nc1ccc(Oc2ncnc3cc(OC)c(OC)cc23)cc1; 6.22
3. COc1cc2nccc(Oc3ccc(OCC(=O)Nc4cccc(C)c4)cc3)c2cc1OC; 7.10

Short answer for "CCN(CC)CCOC(=O)Nc1ccc(Oc2ncnc3cc(OC)c(OC)cc23)cc1" : pIC50 was 6.06

Short answer for CCCC(CCN1CCOCC1)OC(=O)Nc1cc(C)c(Oc2ccnc3cc(OC)c(OC)cc23)cc1C (stereo not drawn) : pIC50 was 6.38

Short answer for "COc1cc2ncnc(Oc3ccc(NC(=O)Oc4ccccc4OC)cc3)c2cc1OC" : pIC50 was 7.03

Short answer for "CCN(CCNC(=O)Nc1ccc(Oc2ccnc3cc(OC)c(OC)cc23)c(C)c1C)c1cccc(C)c1" : pIC50 was 6.69

Short answer for "C=C(C)COC(=O)Nc1cc(C)c(Oc2ccnc3cc(OC)c(OC)cc23)cc1C" : pIC50 was 6.90

Short answer for "C=C(C)COC(=O)Nc1ccc(Oc2ncnc3cc(OC)c(OC)cc23)cc1" : pIC50 was 7.17

Short answer for "COc1cc2ncnc(Oc3ccc(NC(=O)NC4CC(C)(C)NC(C)(C)C4)cc3)c2cc1OC" : pIC50 was 6.39

Short answer for "COc1cc2ncnc(Oc3ccc(NC(=O)NCCN4CCOCC4)c([N+](=O)[O-])c3)c2cc1OC" : pIC50 was 6.94

Short answer for CCCCC(CC)OC(=O)Nc1ccc(Oc2ncnc3cc(OC)c(OC)cc23)cc1 (stereo not drawn) : pIC50 was 6.23
